Quick reference: pKi of the listed items.
# test_system: LCK (Homo sapiens)
pKi: −log10 of the molar value.
outcome_measure: pKi

In [3]: df
Out[3]:
                                    compound           val
 0  c1ccc(-c2[nH]c3ncnc(NCC4CCCS4)c3c2-c2ccccc2)cc1 (stereo not shown)        > 8.00
 1  O=C(NCCN1CCOCC1)c1ccc(-c2[nH]c3ncnc(NCC4CCCO4)c3c2-c2ccccc2)cc1 (stereo not shown)        > 8.00
 2  CCOC(=O)CN(CC(=O)OCC)S(=O)(=O)c1ccc(-c2[nH]c3ncnc(NCC4CCCO4)c3c2-c2ccccc2)cc1 (stereo not shown)  7.00 to 8.00
 3  NS(=O)(=O)c1ccc(-c2[nH]c3ncnc(NC[C@@H]4CCCO4)c3c2-c2ccccc2)cc1  7.00 to 8.00
 4  COCCNS(=O)(=O)c1ccc(-c2[nH]c3ncnc(NCC4CCCO4)c3c2-c2ccccc2)cc1 (stereo not shown)        > 8.00
 5  COCCNC(=O)c1ccc(-c2[nH]c3ncnc(NCC4CCCO4)c3c2-c2ccccc2)cc1 (stereo not shown)        > 8.00
 6  CN(C)CCOc1ccc(-c2[nH]c3ncnc(NC[C@@H]4CCCO4)c3c2-c2ccccc2)cc1        > 8.00
 7  CNS(=O)(=O)c1ccc(-c2[nH]c3ncnc(NCC4CCCO4)c3c2-c2ccccc2)cc1 (stereo not shown)        > 8.00
 8  c1ccc(-c2[nH]c3ncnc(NCC4CCCCO4)c3c2-c2ccccc2)cc1 (stereo not shown)        > 8.00
 9  CN1CCCC1CCOc1ccc(-c2[nH]c3ncnc(NCC4CCCO4)c3c2-c2ccccc2)cc1 (stereo not shown)  7.00 to 8.00
10  O=S(=O)(c1ccc(-c2[nH]c3ncnc(NC[C@@H]4CCCO4)c3c2-c2ccccc2)cc1)N(CCO)CCO        > 8.00
11  O=C(c1ccc(-c2[nH]c3ncnc(NCC4CCCO4)c3c2-c2ccccc2)cc1)N1CCOCC1 (stereo not shown)        < 7.00
12  CN(C)S(=O)(=O)c1ccc(-c2[nH]c3ncnc(NC[C@@H]4CCCO4)c3c2-c2ccccc2)cc1        > 8.00
13  CN(C)CCOc1ccc(-c2[nH]c3ncnc(NC[C@@H]4CCC[C@H]4N)c3c2-c2ccccc2)cc1 (relative stereo)        > 8.00
14  N#CCOc1ccc(-c2[nH]c3ncnc(NC[C@@H]4CCCO4)c3c2-c2ccccc2)cc1  7.00 to 8.00
15  O=C(NC1CC1)c1ccc(-c2[nH]c3ncnc(NCC4CCCO4)c3c2-c2ccccc2)cc1 (stereo not shown)        > 8.00

---

As an illustration, consider measured Ki for compounds on LCK (Homo sapiens, UniProt P06239).
Sequence (P06239 225-509): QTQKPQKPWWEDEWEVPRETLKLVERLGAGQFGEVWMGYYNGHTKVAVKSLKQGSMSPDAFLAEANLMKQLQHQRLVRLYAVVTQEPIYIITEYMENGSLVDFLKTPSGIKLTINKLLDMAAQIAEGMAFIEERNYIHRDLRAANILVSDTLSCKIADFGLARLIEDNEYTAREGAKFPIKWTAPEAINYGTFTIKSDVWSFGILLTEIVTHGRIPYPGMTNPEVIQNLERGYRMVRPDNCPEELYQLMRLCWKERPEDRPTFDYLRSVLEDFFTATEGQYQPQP
outcome_measure: Ki

>>> df
                                   compound           val
0  O=S(=O)(NCCO)c1ccc(-c2[nH]c3ncnc(NC[C@@H]4CCCO4)c3c2-c2ccccc2)cc1       < 10 nM
1  O=C(O)CNS(=O)(=O)c1ccc(-c2[nH]c3ncnc(NC[C@@H]4CCCO4)c3c2-c2ccccc2)cc1  10 to 100 nM
2  CN(C)C(=O)c1ccc(-c2[nH]c3ncnc(NCC4CCCO4)c3c2-c2ccccc2)cc1 (stereo not shown)       < 10 nM
3  CNC(=O)c1ccc(-c2[nH]c3ncnc(NC[C@@H]4CCCO4)c3c2-c2ccccc2)cc1       < 10 nM
